ASSAY TARGET: Estrogen receptor (Homo sapiens, UniProt Q92731+P03372)
// returns Criterion not met unless IC50 is strictly below 10 nM, in which case Criterion met

{"MOLECULE": "Oc1ccc2c(c1)OC[C@H](c1ccccc1)[C@@H]2c1ccc(OCCN2CCCC2)cc1 (racemic)", "LABEL VALUE": "Criterion not met"}
{"MOLECULE": "COc1ccc2c(c1)OC(C)(C)[C@@H](c1ccccc1)[C@@H]2c1ccc(OCCN2CCCC2)cc1 [LEVORMELOXIFENE]", "LABEL VALUE": "Criterion not met"}
{"MOLECULE": "Oc1ccc2c(c1)OC[C@H](c1ccccc1)[C@@H]2c1ccc(SCCN2CCCCC2)cc1 (racemic)", "LABEL VALUE": "Criterion met"}
{"MOLECULE": "Cl.Oc1ccc2c(c1)OC[C@H](c1ccccc1)[C@@H]2c1ccc(SCCN2CCCC2)cc1 (racemic)", "LABEL VALUE": "Criterion met"}
{"MOLECULE": "CC/C(=C(\\c1ccc(I)cc1)c1ccc(OCCN2CCCC2)cc1)c1ccccc1 [IDOXIFENE]", "LABEL VALUE": "Criterion met"}
{"MOLECULE": "Oc1ccc2c(c1)OC[C@H](c1ccccc1)[C@@H]2c1ccc(OCCN2CCCCC2)cc1 (racemic)", "LABEL VALUE": "Criterion met"}
